// data source = ChEMBL document CHEMBL5390283

biological target: von Hippel-Lindau disease tumor suppressor/Tyrosine-protein phosphatase non-receptor type 1 (Homo sapiens, UniProt P18031+P40337); assay: PROTAC activity at VHL/PTP1B in human Jurkat cells assessed as induction of PTP1B degradation by Western blot analysis
Sequence (P18031 whole entry): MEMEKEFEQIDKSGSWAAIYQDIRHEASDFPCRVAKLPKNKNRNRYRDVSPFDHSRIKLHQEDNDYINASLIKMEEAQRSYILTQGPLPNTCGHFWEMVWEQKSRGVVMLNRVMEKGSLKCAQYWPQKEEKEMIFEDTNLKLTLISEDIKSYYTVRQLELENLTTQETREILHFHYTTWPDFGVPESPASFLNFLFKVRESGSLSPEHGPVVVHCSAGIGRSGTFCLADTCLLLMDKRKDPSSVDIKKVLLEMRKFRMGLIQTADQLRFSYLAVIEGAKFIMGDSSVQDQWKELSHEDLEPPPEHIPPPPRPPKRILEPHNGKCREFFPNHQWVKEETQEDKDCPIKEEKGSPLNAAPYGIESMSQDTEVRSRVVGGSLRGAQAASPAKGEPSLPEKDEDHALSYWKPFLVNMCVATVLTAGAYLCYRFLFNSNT
Sequence (P40337 whole entry): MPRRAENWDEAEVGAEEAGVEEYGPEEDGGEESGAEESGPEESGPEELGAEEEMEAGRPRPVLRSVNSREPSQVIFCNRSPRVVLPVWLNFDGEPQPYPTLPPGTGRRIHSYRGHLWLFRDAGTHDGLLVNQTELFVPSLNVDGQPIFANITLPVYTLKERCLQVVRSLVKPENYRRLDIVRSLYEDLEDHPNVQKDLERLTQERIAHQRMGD
measurement.name: EC50 (µM)
Reply with just the number (in µM).

For this compound ( `Cc1ncsc1-c1ccc([C@H](C)NC(=O)[C@@H]2C[C@@H](O)CN2C(=O)[C@@H](NC(=O)CCCCCCCCCCNC(=O)Cn2cc(-c3ccc4cc(O)c(N5CC(=O)NS5(=O)=O)c(F)c4c3)cn2)C(C)(C)C)cc1` ), measured EC50 is 2

For this compound ( `Cc1ncsc1-c1ccc([C@H](C)NC(=O)[C@@H]2C[C@@H](O)CN2C(=O)[C@@H](NC(=O)CCCCCCNC(=O)Cn2cc(-c3ccc4cc(O)c(N5CC(=O)NS5(=O)=O)c(F)c4c3)cn2)C(C)(C)C)cc1` ), measured EC50 is 0.142

For this compound ( `Cc1ncsc1-c1ccc([C@H](C)NC(=O)[C@@H]2C[C@@H](O)CN2C(=O)[C@@H](NC(=O)CCCCCNC(=O)Cn2cc(-c3ccc4cc(O)c(N5CC(=O)NS5(=O)=O)c(F)c4c3)cn2)C(C)(C)C)cc1` ), measured EC50 is 13.1

For this compound ( `Cc1ncsc1-c1ccc([C@H](C)NC(=O)[C@@H]2C[C@@H](O)CN2C(=O)[C@@H](NC(=O)CCCCCCCNC(=O)Cn2cc(-c3ccc4cc(O)c(N5CC(=O)NS5(=O)=O)c(F)c4c3)cn2)C(C)(C)C)cc1` ), measured EC50 is 0.758

* * *

target: von Hippel-Lindau disease tumor suppressor/Tyrosine-protein phosphatase non-receptor type 2 (Homo sapiens, UniProt P17706+P40337); assay: PROTAC activity at VHL/PTPN2 in human Jurkat cells assessed as induction of PTPN2 degradation at 100 nM by Western blot analysis relative to control; assay type: cell-based
Sequence (P17706 whole entry, looked up): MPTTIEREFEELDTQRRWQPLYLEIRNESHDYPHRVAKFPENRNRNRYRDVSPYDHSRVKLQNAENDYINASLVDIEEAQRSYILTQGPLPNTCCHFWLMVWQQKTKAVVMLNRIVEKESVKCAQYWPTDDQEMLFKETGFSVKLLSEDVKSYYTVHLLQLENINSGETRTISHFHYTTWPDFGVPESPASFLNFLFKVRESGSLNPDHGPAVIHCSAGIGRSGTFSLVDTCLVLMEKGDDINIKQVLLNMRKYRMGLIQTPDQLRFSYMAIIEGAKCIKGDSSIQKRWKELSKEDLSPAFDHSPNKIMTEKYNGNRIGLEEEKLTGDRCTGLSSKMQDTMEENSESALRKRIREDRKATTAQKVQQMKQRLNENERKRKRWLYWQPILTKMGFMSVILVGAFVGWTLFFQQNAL
Sequence (P40337 whole entry, looked up): as the sequence (P40337 whole entry) above
Listed below: Activity values for each entry.
Reply with just the number (in %).

For this molecule ( `Cc1ncsc1-c1ccc([C@H](C)NC(=O)[C@@H]2C[C@@H](O)CN2C(=O)[C@@H](NC(=O)CCNC(=O)Cn2cc(-c3ccc4cc(O)c(N5CC(=O)NS5(=O)=O)c(F)c4c3)cn2)C(C)(C)C)cc1` ), measured Activity is -1

* * *

target: von Hippel-Lindau disease tumor suppressor/Tyrosine-protein phosphatase non-receptor type 2 (Homo sapiens, UniProt P17706+P40337); assay: PROTAC activity at VHL/PTPN2 in human Jurkat cells assessed as induction of PTPN2 degradation at 1 uM by Western blot analysis relative to control; assay type: cell-based
Listed below: Activity values for each entry.
Reply with just the number (in %).

Some compounds with recorded Activity:
smiles.text	Activity (%)
Cc1ncsc1-c1ccc([C@H](C)NC(=O)[C@@H]2C[C@@H](O)CN2C(=O)[C@@H](NC(=O)CCNC(=O)Cn2cc(-c3ccc4cc(O)c(N5CC(=O)NS5(=O)=O)c(F)c4c3)cn2)C(C)(C)C)cc1	57
Cc1ncsc1-c1ccc([C@H](C)NC(=O)[C@@H]2C[C@@H](O)CN2C(=O)[C@@H](NC(=O)CCCCCCCCCCNC(=O)Cn2cc(-c3ccc4cc(O)c(N5CC(=O)NS5(=O)=O)c(F)c4c3)cn2)C(C)(C)C)cc1	71

For this compound ( `Cc1ncsc1-c1ccc([C@H](C)NC(=O)[C@@H]2C[C@@H](O)CN2C(=O)[C@@H](NC(=O)CNC2CCN(C(=O)Cn3cc(-c4ccc5cc(O)c(N6CC(=O)NS6(=O)=O)c(F)c5c4)cn3)CC2)C(C)(C)C)cc1` ), measured Activity is 72

* * *

Listed below: EC50 values for each entry.
target: von Hippel-Lindau disease tumor suppressor/Tyrosine-protein phosphatase non-receptor type 2 (Homo sapiens, UniProt P17706+P40337); assay: PROTAC activity at VHL/PTPN2 in human Jurkat cells assessed as induction of PTPN2 degradation by Western blot analysis
Sequence (P17706 whole entry): as the sequence (P17706 whole entry, looked up) above
Sequence (P40337 whole entry): as the sequence (P40337 whole entry) above
Reply with just the number (in nM).

Some compounds with recorded EC50:
smiles.text	measurement.name	readout.number
Cc1ncsc1-c1ccc([C@H](C)NC(=O)[C@@H]2C[C@@H](O)CN2C(=O)[C@@H](NC(=O)CCCCCCCNC(=O)Cn2cc(-c3ccc4cc(O)c(N5CC(=O)NS5(=O)=O)c(F)c4c3)cn2)C(C)(C)C)cc1	EC50	77
Cc1ncsc1-c1ccc([C@H](C)NC(=O)[C@@H]2C[C@@H](O)CN2C(=O)[C@@H](NC(=O)CCCCCNC(=O)Cn2cc(-c3ccc4cc(O)c(N5CC(=O)NS5(=O)=O)c(F)c4c3)cn2)C(C)(C)C)cc1	EC50	217
Cc1ncsc1-c1ccc([C@H](C)NC(=O)[C@@H]2C[C@@H](O)CN2C(=O)[C@@H](NC(=O)CCCCCCCCCCNC(=O)Cn2cc(-c3ccc4cc(O)c(N5CC(=O)NS5(=O)=O)c(F)c4c3)cn2)C(C)(C)C)cc1	EC50	571

# input for lookup
For this compound ( `Cc1ncsc1-c1ccc([C@H](C)NC(=O)[C@@H]2C[C@@H](O)CN2C(=O)[C@@H](NC(=O)CCCCCCNC(=O)Cn2cc(-c3ccc4cc(O)c(N5CC(=O)NS5(=O)=O)c(F)c4c3)cn2)C(C)(C)C)cc1` ), measured EC50 is 94

* * *

biological target: von Hippel-Lindau disease tumor suppressor/Tyrosine-protein phosphatase non-receptor type 2 (Homo sapiens, UniProt P17706+P40337); test: PROTAC activity at VHL/PTPN2 in human Jurkat cells assessed as induction of PTPN2 degradation at 10 uM by Western blot analysis relative to control; assay type: cell-based
measurement.name: Activity (%)
Reply with just the number (in %).

Some molecules with recorded Activity:
smiles.text	Activity [%]
Cc1ncsc1-c1ccc([C@H](C)NC(=O)[C@@H]2C[C@@H](O)CN2C(=O)[C@@H](NC(=O)CCNC2CCN(C(=O)Cn3cc(-c4ccc5cc(O)c(N6CC(=O)NS6(=O)=O)c(F)c5c4)cn3)CC2)C(C)(C)C)cc1	85
Cc1ncsc1-c1ccc([C@H](C)NC(=O)[C@@H]2C[C@@H](O)CN2C(=O)[C@@H](NC(=O)CCCCCCCNC(=O)Cn2cc(-c3ccc4cc(O)c(N5CC(=O)NS5(=O)=O)c(F)c4c3)cn2)C(C)(C)C)cc1	99

# input for lookup
For this molecule ( `Cc1ncsc1-c1ccc([C@H](C)NC(=O)[C@@H]2C[C@@H](O)CN2C(=O)[C@@H](NC(=O)CNC(=O)Cn2cc(-c3ccc4cc(O)c(N5CC(=O)NS5(=O)=O)c(F)c4c3)cn2)C(C)(C)C)cc1` ), measured Activity is 91

* * *

Listed below: Activity values for each entry.
target: von Hippel-Lindau disease tumor suppressor/Tyrosine-protein phosphatase non-receptor type 2 (Homo sapiens, UniProt P17706+P40337); test: PROTAC activity at VHL/PTPN2 in human Jurkat cells assessed as induction of PTPN2 degradation at 10 uM by Western blot analysis relative to control; assay type: cell-based
Reply with just the number (in %).

smiles.text	Activity, %
Cc1ncsc1-c1ccc([C@H](C)NC(=O)[C@@H]2C[C@@H](O)CN2C(=O)[C@@H](NC(=O)CCNC(=O)Cn2cc(-c3ccc4cc(O)c(N5CC(=O)NS5(=O)=O)c(F)c4c3)cn2)C(C)(C)C)cc1	96

For this compound ( `Cc1ncsc1-c1ccc([C@H](C)NC(=O)[C@@H]2C[C@@H](O)CN2C(=O)[C@@H](NC(=O)c2cn(CCCNC(=O)Cn3cc(-c4ccc5cc(O)c(N6CC(=O)NS6(=O)=O)c(F)c5c4)cn3)nn2)C(C)(C)C)cc1` ), measured Activity is 62

For this compound ( `Cc1ncsc1-c1ccc([C@H](C)NC(=O)[C@@H]2C[C@@H](O)CN2C(=O)[C@@H](NC(=O)CCCNC(=O)Cn2cc(-c3ccc4cc(O)c(N5CC(=O)NS5(=O)=O)c(F)c4c3)cn2)C(C)(C)C)cc1` ), measured Activity is 98

* * *

biological target: von Hippel-Lindau disease tumor suppressor/Tyrosine-protein phosphatase non-receptor type 2 (Homo sapiens, UniProt P17706+P40337); experiment: PROTAC activity at VHL/PTPN2 in human Jurkat cells assessed as induction of PTPN2 degradation at 1 uM by Western blot analysis relative to control; type: cell-based
measurement.name: Activity (%)
Reply with just the number (in %).

Some molecules with recorded Activity:
smiles.text	Activity / %
Cc1ncsc1-c1ccc([C@H](C)NC(=O)[C@@H]2C[C@@H](O)CN2C(=O)[C@@H](NC(=O)c2cn(CCCNC(=O)Cn3cc(-c4ccc5cc(O)c(N6CC(=O)NS6(=O)=O)c(F)c5c4)cn3)nn2)C(C)(C)C)cc1	2
Cc1ncsc1-c1ccc([C@H](C)NC(=O)[C@@H]2C[C@@H](O)CN2C(=O)[C@@H](NC(=O)Cn2cc(-c3ccc4cc(O)c(N5CC(=O)NS5(=O)=O)c(F)c4c3)cn2)C(C)(C)C)cc1	-8

For this molecule ( `Cc1ncsc1-c1ccc([C@H](C)NC(=O)[C@@H]2C[C@@H](O)CN2C(=O)[C@@H](NC(=O)CCNC2CCN(C(=O)Cn3cc(-c4ccc5cc(O)c(N6CC(=O)NS6(=O)=O)c(F)c5c4)cn3)CC2)C(C)(C)C)cc1` ), measured Activity is 35

For this molecule ( `Cc1ncsc1-c1ccc([C@H](C)NC(=O)[C@@H]2C[C@@H](O)CN2C(=O)[C@@H](NC(=O)CCCCCCNC(=O)Cn2cc(-c3ccc4cc(O)c(N5CC(=O)NS5(=O)=O)c(F)c4c3)cn2)C(C)(C)C)cc1` ), measured Activity is 84

For this molecule ( `Cc1ncsc1-c1ccc([C@H](C)NC(=O)[C@@H]2C[C@@H](O)CN2C(=O)[C@@H](NC(=O)CCCCCNC(=O)Cn2cc(-c3ccc4cc(O)c(N5CC(=O)NS5(=O)=O)c(F)c4c3)cn2)C(C)(C)C)cc1` ), measured Activity is 81

For this molecule ( `Cc1ncsc1-c1ccc([C@H](C)NC(=O)[C@@H]2C[C@@H](O)CN2C(=O)[C@@H](NC(=O)CCCCCCCNC(=O)Cn2cc(-c3ccc4cc(O)c(N5CC(=O)NS5(=O)=O)c(F)c4c3)cn2)C(C)(C)C)cc1` ), measured Activity is 84

For this molecule ( `Cc1ncsc1-c1ccc([C@H](C)NC(=O)[C@@H]2C[C@@H](O)CN2C(=O)[C@@H](NC(=O)CCCCNC(=O)Cn2cc(-c3ccc4cc(O)c(N5CC(=O)NS5(=O)=O)c(F)c4c3)cn2)C(C)(C)C)cc1` ), measured Activity is 77
